Measured IC50 values are reported for all entries that follow.
- Tested on: CRL-1459
- METHOD NOTES: MTT cytotoxicity assay, CRL-1459 normal colon epithelial cells
- Assay type: cell-based
- STATED CONDITIONS: Homo sapiens, normal colon epithelial cell line, means ± SDs of three independent experiments, read-out: IC50 ± SD, Non-Prostate Cells, CRL-1459

// lookup IC50 for `O=c1[nH]c(-c2ccc(F)cc2)nc2sc3c(c12)CCCC3`
> 100 µM

`O=c1[nH]c(-c2cccc([N+](=O)[O-])c2)nc2sc3c(c12)CCCC3` ?
> 100 µM

`COc1ccc(-c2nc3sc4c(c3c(=O)[nH]2)CCCC4)cc1` ?
73 µM

`O=c1[nH]c(-c2ccccc2)nc2sc3c(c12)CCCC3` ?
> 100 µM

`O=c1[nH]c(-c2ccc(Cl)cc2Cl)nc2sc3c(c12)CCCC3` ?
> 100 µM
